Data credit: patent US20230192839A1

# ASSAYED TARGET: T1, human CD33 antigen (human, UniProt P20138 18-259, limits assumed)
# T1 construct: whole entry named; also called Siglec-3
# T1 sequence (P20138 18-259 limits assumed): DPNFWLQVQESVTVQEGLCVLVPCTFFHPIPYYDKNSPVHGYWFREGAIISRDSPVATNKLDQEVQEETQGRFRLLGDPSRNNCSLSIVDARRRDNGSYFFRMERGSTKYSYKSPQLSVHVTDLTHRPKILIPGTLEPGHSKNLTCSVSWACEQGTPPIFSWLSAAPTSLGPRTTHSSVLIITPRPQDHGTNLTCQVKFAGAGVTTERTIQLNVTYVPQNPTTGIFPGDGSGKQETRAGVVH
# EXPERIMENT NOTES: SPR (Biacore T200), 37 C, scFv-Fc, 0 uM MTX
Entries and their kon
Express it in M⁻¹ s⁻¹; write the number only.

Example entries begin here.
BINDER	QUANTITY UNIT	kon
P03_H04 scFv-Fc fusion (scFv, V domains shown, Tested as scFv-Fc fusion) VH: QVQLVESGGGLVQAGGSLRLSCAASRRSSRSWAMHWVRQAPGKGLEWVAVISYDGRLKYYADSVKGRFTISRDNAEYLVYLQMNSLRAEDTAVYYCAADPHDGYGGGPGFDYWGQGTLVTVSS VL: QSVLTQPPSASGTPGQRVTISCSGSSSNIGSNYVYWYQQLPGTAPKLLIYRSNQRPSGVPDRFSGSKSGTSASLAISGLRSEDEADYYCAAWDDTLSAVVFGTGTKLTVL	M⁻¹ s⁻¹	72000
P16_E06 scFv-Fc fusion (scFv, V domains shown, Tested as scFv-Fc fusion) VH: QVQLVESGGGLVQAGGSLRLSCAASRRSSRSWAMHWVRQAPGKGLEWVAVISYDGRLKYYADSVKGRFTISRDNAEYLVYLQMNSLRAEDTAVYYCAAEGGDYPGTSDGGLDIWGQGTLVTVSS VL: DIQMTQSPSSLSASVGDRVTITCRASQSISNYLNWYQQKPGKAPKLLIYGASSLQSGVPSRFSGSGSGTDFTLTISSLQPEDFATYYCQQSYSAGTFGQGTKVEIK	M⁻¹ s⁻¹	120000
P01_C05 scFv-Fc fusion (scFv, V domains shown, Tested as scFv-Fc fusion) VH: QVQLVESGGGLVQAGGSLRLSCAASRRSSRSWAMHWVRQAPGKGLEWVAVISYDGRLKYYADSVKGRFTISRDNAEYLVYLQMNSLRAEDTAVYYCAAEQWGTNDGPDGGMDYWGQGTLVTVSS VL: DIQMTQSPSSLSASVGDRVTITCRASQTIGSHLNWYQQKPGKAPKLLIYGTSNLQSGVPSRFSGSGSGTDFTLTISSLQPEDFATYYCQQSYSSPLTFGQGTKVEIK	M⁻¹ s⁻¹	76000
P03_G12 scFv-Fc fusion (scFv, V domains shown, Tested as scFv-Fc fusion) VH: QVQLVESGGGLVQAGGSLRLSCAASRRSSRSWAMHWVRQAPGKGLEWVAVISYDGRLKYYADSVKGRFTISRDNAEYLVYLQMNSLRAEDTAVYYCAADPTEGWSYLDYWGQGTLVTVSS VL: DIQMTQSPSSLSASVGDRVTITCRASQGISSYLNWYQQKPGKAPKLLIYGASRLQSGVPSRFSGSGSGTDFTLTISSLQPEDFATYYCQQGYSSGTFGQGTKVEIK	M⁻¹ s⁻¹	71000

## Task Entry under review: P02_A10 scFv-Fc fusion (scFv, V domains shown, Tested as scFv-Fc fusion) VH: QVQLVESGGGLVQAGGSLRLSCAASRRSSRSWAMHWVRQAPGKGLEWVAVISYDGRLKYYADSVKGRFTISRDNAEYLVYLQMNSLRAEDTAVYYCAAESEWDTGGFDVWGQGTLVTVSS VL: DIQMTQSPSSLSASVGDRVTITCRASQSIGSYLNWYQQKPGKAPKLLIYSSSNLQSGVPSRFSGSGSGTDFTLTISSLQPEDFATYYCQQSYTSGTFGQGTKVEIK . Reported kon?
## Result 84000
